Reference for the values: the supplement of paper PMC10567573

B1: HDAC6 (parent)
chain: YVHHQALLDVKNIAHQNKFGEDMP

Variants of: B1
assay_overview: protein stability index of a GFP-peptide fusion (GPS, HEK-293T) (PSI 1-6); higher = more stable;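 further: lentivirally expressed fusions sorted by FACS into six bins by GFP to DsRed ratio, PSI derived from sequencing read proportions per bin multiplied by bin number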
recorded_conditions: c terminus: a fixed tail appended
Please enter T where protein stability index is greater than or equal to 2, and F where it is lower.

mutation_annotation=H15L class=F
mutation_annotation=N17L class=F
mutation_annotation=H4Q class=T
mutation_annotation=Y1K class=T
mutation_annotation=N12S class=T
mutation_annotation=H4P class=T
mutation_annotation=F19Q class=T
mutation_annotation=Y1T class=T
mutation_annotation=I13A class=T
mutation_annotation=A6N class=F
mutation_annotation=Y1P class=T
mutation_annotation=H4N class=F
mutation_annotation=G20M class=T
mutation_annotation=V10L class=F
mutation_annotation=A6E class=T
mutation_annotation=H4E class=T
mutation_annotation=G20I class=F
mutation_annotation=K18M class=F
mutation_annotation=N12P class=T
mutation_annotation=N12V class=F
